Tested on: NRG-mice bearing LNCaP tumors
Experiment: Biodistribution (and PET/SPECT imaging) in NRG-mice bearing LNCaP tumors
Format: in vivo
Conditions: 72 h p.i., Avg
Each entry below lists one item and its recorded Biodistribution: Spleen value.
The reply should be a number in % ID/g, with the unit left off.

Lab note: measured Biodistribution: Spleen of COc1ccc(CCCC(=O)NCC(=O)NC(CCCCNC(=O)CN2CCN(CC(=O)[O-])CCN(CC(=O)[O-])CCN(CC(=O)[O-])CC2)CC(=O)NCC2CCC(C(=O)NC(Cc3c4ccccc4cc4ccccc34)C(=O)NCCCCC(NC(=O)NC(CC(F)C(=O)O)C(=O)O)C(=O)O)CC2)cc1.[177Lu+3] (centres unmarked) [^177Lu-CCZ02019] was 0.45

More entries:
Lab note: measured Biodistribution: Spleen of COc1ccc(CCCC(=O)NCC(=O)NC(CCCCNC(=O)CN2CCN(CC(=O)[O-])CCN(CC(=O)[O-])CCN(CC(=O)[O-])CC2)C(=O)NCC2CCC(C(=O)NC(Cc3c4ccccc4cc4ccccc34)C(=O)NCCCCC(NC(=O)NC(CCCC(=O)O)C(=O)O)C(=O)O)CC2)cc1.[177Lu+3] (centres unmarked) [^177Lu-HTK03170, reference compound] was 0.36

* * *

Each entry below lists one item and its recorded Biodistribution: kidney value.
System: NRG-mice bearing LNCaP tumors
Experiment: Biodistribution (and PET/SPECT imaging) in NRG-mice bearing LNCaP tumors
Format: in vivo
Details: 3 h p.i., Avg
Protocol: LNCaP cell line was obtained from ATCC (LNCaP clone FGC, CRL-1740). It was established from a metastatic site of left supraclavicular lymph node of human prostatic adenocarcinoma. […] The collected cells number was counted with a Hausser Scientific (Horsham, PA) Hemacytometer. […] PET imaging experiments were conducted using Siemens Inveon micro PET/CT scanner. […] Then, a 10-min static PET imaging or a one hour (30 min×2 frames) of static SPECT scan was performed to determined uptake in tumor and other organs. […]
*1 amine or outer side, *2 acyl side, *3 side chain or, on linkers, in order; H or OH if unused. Where a SMILES comes first, the peptide text is derived from it. [ ]: non-standard residue; d: D form. The star is where a group is joined. ξ: configuration not given here. ξLys(Nα-CO-ξAad) = O=C(O)CCCC(NC(=O)NC(CCCCN*)C(=O)O)C(=O)O; Butanoyl(4-(4-NO2Ph)) = O=C(CCCc1ccc([N+](=O)[O-])cc1)*; DOTA = O=C(O)CN1CCN(CC(=O)O)CCN(CC(=O)*)CCN(CC(=O)O)CC1; Butanoyl(4-(4-MeO-phenyl)) = COc1ccc(CCCC(=O)*)cc1; ξAla(9-anthryl) = NC(Cc1c2ccccc2cc2ccccc12)C(=O)O; X1 = O=C(C1CCC(CN[*:1])CC1)[*:2]; ξK = NCCCCC(N)C(=O)O
Respond with a number, then the unit of measure.

Worked examples follow.
Lab note: measured Biodistribution: kidney of O=C([O-])CN1CCN(CC(=O)[O-])CCN(CC(=O)NCCCCC(NC(=O)CNC(=O)CCCc2ccc([N+](=O)[O-])cc2)C(=O)NCC(=O)NCC2CCC(C(=O)NC(Cc3c4ccccc4cc4ccccc34)C(=O)NCCCCC(NC(=O)NC(CCCC(=O)O)C(=O)O)C(=O)O)CC2)CCN(CC(=O)[O-])CC1.[177Lu+3] (stereo not drawn) [^177Lu-CCZ02017] ({Butanoyl(4-(4-NO2Ph))}-G[ξK](DOTA)G[X1][ξAla(9-anthryl)]-{ξLys(Nα-CO-ξAad)}) was 17.31 % ID/g

Lab note: measured Biodistribution: kidney of O=C([O-])CN1CCN(CC(=O)[O-])CCN(CC(=O)NCCCCC(NC(=O)CNC(=O)CCCc2ccc([N+](=O)[O-])cc2)C(=O)NCC(=O)NCC2CCC(C(=O)NC(Cc3c4ccccc4cc4ccccc34)C(=O)NCCCCC(NC(=O)NC(CCCC(=O)O)C(=O)O)C(=O)O)CC2)CCN(CC(=O)[O-])CC1.[225Ac+3] (stereo not drawn) [^225Ac-CCZ02017] ({Butanoyl(4-(4-NO2Ph))}-G[ξK](DOTA)G[X1][ξAla(9-anthryl)]-{ξLys(Nα-CO-ξAad)}) was 14.29 % ID/g

More entries:
Lab note: measured Biodistribution: kidney of COc1ccc(CCCC(=O)NCC(=O)NC(CCCCNC(=O)CN2CCN(CC(=O)[O-])CCN(CC(=O)[O-])CCN(CC(=O)[O-])CC2)C(=O)NCC(=O)NCC2CCC(C(=O)NC(Cc3c4ccccc4cc4ccccc34)C(=O)NCCCCC(NC(=O)NC(CCCC(=O)O)C(=O)O)C(=O)O)CC2)cc1.[68Ga+3] (stereo not drawn) [^68Ga-CCZ02009] ({Butanoyl(4-(4-MeO-phenyl))}-G[ξK](DOTA)G[X1][ξAla(9-anthryl)]-{ξLys(Nα-CO-ξAad)}) was 9.28 % ID/g

* * *

Test system: NRG-mice bearing LNCaP tumors
Assay: Biodistribution (and PET/SPECT imaging) in NRG-mice bearing LNCaP tumors
Format: in vivo
Conditions: 24 h p.i., Avg
attribute-measured: Biodistribution: Bone
Respond with a number, then the unit of measure.

Lab note: measured Biodistribution: Bone of COc1ccc(CCCC(=O)NCC(=O)NC(CCCCNC(=O)CN2CCN(CC(=O)[O-])CCN(CC(=O)[O-])CCN(CC(=O)[O-])CC2)CC(=O)NCC2CCC(C(=O)NC(Cc3c4ccccc4cc4ccccc34)C(=O)NCCCCC(NC(=O)NC(CC(F)C(=O)O)C(=O)O)C(=O)O)CC2)cc1.[177Lu+3] (stereo not shown) [^177Lu-CCZ02019] was 0.18 % ID/g

* * *

Tested on: NRG-mice bearing LNCaP tumors
Assay: Biodistribution (and PET/SPECT imaging) in NRG-mice bearing LNCaP tumors
Type: in vivo
Details: 24 h p.i., Avg
*1 amine or outer side, *2 acyl side, *3 side chain or, on linkers, in order; H or OH if unused. Where a SMILES comes first, the peptide text is derived from it. [ ]: non-standard residue; d: D form. The star is where a group is joined. ξ: configuration not given here. ξLys(Nα-CO-ξAad) = O=C(O)CCCC(NC(=O)NC(CCCCN*)C(=O)O)C(=O)O; Butanoyl(4-(4-NO2Ph)) = O=C(CCCc1ccc([N+](=O)[O-])cc1)*; DOTA = O=C(O)CN1CCN(CC(=O)O)CCN(CC(=O)*)CCN(CC(=O)O)CC1; Butanoyl(4-(4-MeO-phenyl)) = COc1ccc(CCCC(=O)*)cc1; ξAla(9-anthryl) = NC(Cc1c2ccccc2cc2ccccc12)C(=O)O; X2 = O=C(NC(CCCCN*)C(=O)O)NC(CC(F)C(=O)O)C(=O)O; X1 = O=C(C1CCC(CN[*:1])CC1)[*:2]; ξK = NCCCCC(N)C(=O)O
attribute-measured: Biodistribution: Bone (% ID/g)
The reply should be a number in % ID/g, with the unit left off.

Worked examples follow.
Summary: O=C([O-])CN1CCN(CC(=O)[O-])CCN(CC(=O)NCCCCC(NC(=O)CNC(=O)CCCc2ccc([N+](=O)[O-])cc2)C(=O)NCC(=O)NCC2CCC(C(=O)NC(Cc3c4ccccc4cc4ccccc34)C(=O)NCCCCC(NC(=O)NC(CCCC(=O)O)C(=O)O)C(=O)O)CC2)CCN(CC(=O)[O-])CC1.[225Ac+3] (stereo not shown) [^225Ac-CCZ02017] ({Butanoyl(4-(4-NO2Ph))}-G[ξK](DOTA)G[X1][ξAla(9-anthryl)]-{ξLys(Nα-CO-ξAad)}) , NRG-mice bearing LNCaP tumors, Biodistribution: Bone = 0.30

Summary: O=C([O-])CN1CCN(CC(=O)[O-])CCN(CC(=O)NCCCCC(NC(=O)CNC(=O)CCCc2ccc([N+](=O)[O-])cc2)C(=O)NCC(=O)NCC2CCC(C(=O)NC(Cc3c4ccccc4cc4ccccc34)C(=O)NCCCCC(NC(=O)NC(CCCC(=O)O)C(=O)O)C(=O)O)CC2)CCN(CC(=O)[O-])CC1.[177Lu+3] (stereo not shown) [^177Lu-CCZ02017] ({Butanoyl(4-(4-NO2Ph))}-G[ξK](DOTA)G[X1][ξAla(9-anthryl)]-{ξLys(Nα-CO-ξAad)}) , NRG-mice bearing LNCaP tumors, Biodistribution: Bone = 0.07

Summary: COc1ccc(CCCC(=O)NCC(=O)NC(CCCCNC(=O)CN2CCN(CC(=O)[O-])CCN(CC(=O)[O-])CCN(CC(=O)[O-])CC2)C(=O)NCC(=O)NCC2CCC(C(=O)NC(Cc3c4ccccc4cc4ccccc34)C(=O)NCCCCC(NC(=O)NC(CC(F)C(=O)O)C(=O)O)C(=O)O)CC2)cc1.[177Lu+3] (stereo not shown) [^177Lu-CCZ02008] ({Butanoyl(4-(4-MeO-phenyl))}-G[ξK](DOTA)G[X1][ξAla(9-anthryl)]-X2) , NRG-mice bearing LNCaP tumors, Biodistribution: Bone = 0.36

Now let's try a different one.
Summary: COc1ccc(CCCC(=O)NCC(=O)NC(CCCCNC(=O)CN2CCN(CC(=O)[O-])CCN(CC(=O)[O-])CCN(CC(=O)[O-])CC2)C(=O)NCC2CCC(C(=O)NC(Cc3c4ccccc4cc4ccccc34)C(=O)NCCCCC(NC(=O)NC(CCCC(=O)O)C(=O)O)C(=O)O)CC2)cc1.[177Lu+3] (stereo not shown) [^177Lu-HTK03170, reference compound] , NRG-mice bearing LNCaP tumors, Biodistribution: Bone = 0.18
